- Assay summary: method code SF-AS, from PMID: 6637504
- Cond: pH 5.0
Result type: logD
One number for each entry.

Below, each entry is followed by its recorded logD result.
Cc1cccn2c(=O)c3c(nc12)CCC3: 1.72
CC1CCCc2nc3c(c(=O)n21)CCC3 (stereo not drawn): 1.21
O=c1c2c(nc3n1CCC3)CCCCC2: 1.25
O=c1c2c(nc3ccccn13)CCC2: 1.19
CC1CCn2c(nc3c(c2=O)CCC3)C1 (stereo not drawn): 1.22

Report logD for every entry below.
1. O=c1c2c(nc3n1CCC3)CCCCCC2
2. CCCc1c(C)nc2ccccn2c1=O

Data returned:
1. 1.41
2. 1.85

----------
- Assay summary: method code SF-AS, from PMID: 6637504
- Cond: pH 5.0
Classification field: enter 1 for logD values not below 2, 0 for values below it.

# example entries with known answers
CC1CCc2nc3c(c(=O)n2C1)CCC3 (stereo unspecified): 0
O=c1c2c(nc3n1CCC3)CCCC2: 0
CCc1c(C)nc2cc(C)cc(C)n2c1=O: 0

Data request: Does logD meet or surpass 2 for O=c1c2c(nc3n1CCCCCC3)CCCCCC2 ?
Data returned: 1

Data request: Does the compound O=c1c2ccccc2nc2n1CCC2 have recorded logD that is 2 or more?
Data returned: 0

Data request: I'd appreciate it if you could say whether O=c1c2c(nc3n1CCCC3)CCC2 has logD at least equal to 2.
Data returned: 0
